viability, T/C values, listed per item
# Tested on: 885512-296-R-J2-PDC complex spheroid viability
# assayNotes: Anticancer human tumor 885512-296-R-J2-PDC patient-derived breast carcinoma cell line growth inhibition
# testContext: second compound 1 µM; first compound 0.03 µM; stronger effect = lower value

{"columns": ["compound", "systemTested", "measurementUnit", "viability, T/C"],
 "data": [
  ["O=C(C=Cc1cccc(S(=O)(=O)Nc2ccccc2)c1)NO + NC1CC1c1ccc(-c2cccc(O)c2)cc1", "885512-296-R-J2-PDC complex spheroid viability", "%", 73.6],
  ["COc1cc(C2c3cc4c(cc3C(OC3OC5COC(C)OC5C(O)C3O)C3COC(=O)C23)OCO4)cc(OC)c1O (centres undefined) + NC1CCC(NC2CC2c2ccccc2)CC1", "885512-296-R-J2-PDC complex spheroid viability", "%", 86.4],
  ["NS(=O)(=O)OCC1CC(n2ccc3c(NC4CCc5ccccc54)ncnc32)CC1O (centres undefined) + NC1CC1c1ccc(-c2cccc(O)c2)cc1", "885512-296-R-J2-PDC complex spheroid viability", "%", 5.8],
  ["Nc1ccccc1NC(=O)c1ccc(CNC(=O)OCc2cccnc2)cc1 + NC1CC1c1ccc(-c2cccc(O)c2)cc1", "885512-296-R-J2-PDC complex spheroid viability", "%", 53.8]
]}

----------
pIC50 values, listed per item
# Tested on: 885512-296-R-J2-PDC complex spheroid viability
# assayNotes: Anticancer human tumor 885512-296-R-J2-PDC cell line growth inhibition;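 further: spheroids exposed to agents for 7 days before viability read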
# testContext: curve of first compound; second compound 10 µM
pIC50: −log10 of the molar value.

{"columns": ["molecule", "qualifierSymbol", "pIC50"],
 "data": [
  ["COc1cc(Nc2ncc3c(n2)-c2ccc(Cl)cc2C(c2c(F)cccc2OC)=NC3)ccc1C(=O)O + NC1CC1c1ccc(-c2cccc(O)c2)cc1", ">", 8.50],
  ["Nc1ccccc1NC(=O)c1ccc(CNC(=O)OCc2cccnc2)cc1 + NC1CC1c1ccc(-c2cccc(O)c2)cc1", "=", 7.62],
  ["COc1cc(Nc2ncc3c(n2)-c2ccc(Cl)cc2C(c2c(F)cccc2OC)=NC3)ccc1C(=O)O + NC1CCC(NC2CC2c2ccccc2)CC1", "=", 8.29],
  ["CCc1c2c(nc3ccc(O)cc13)-c1cc3c(c(=O)n1C2)COC(=O)[C@]3(O)CC + NC1CCC(NC2CC2c2ccccc2)CC1", ">", 9.02],
  ["CC1COCCN1c1cc(C2(S(C)(=N)=O)CC2)nc(-c2ccnc3[nH]ccc23)n1 (stereo not drawn) + NC1CCC(NC2CC2c2ccccc2)CC1", "=", 6.91],
  ["O=C(C=Cn1cnc(-c2cc(C(F)(F)F)cc(C(F)(F)F)c2)n1)NNc1cnccn1 + NC1CC1c1ccc(-c2cccc(O)c2)cc1", ">", 8.50],
  ["COc1ccc([C@@H](O)c2cc(-c3ncnc4cc(N5CCOCC5)ccc34)c(F)cc2Cl)nn1 + NC1CC1c1ccc(-c2cccc(O)c2)cc1", "=", 6.35],
  ["CCN(c1cc(-c2ccc(CN3CCOCC3)cc2)cc(C(=O)NCc2c(C)cc(C)[nH]c2=O)c1C)C1CCOCC1 + NC1CCC(NC2CC2c2ccccc2)CC1", "<", 5.52],
  ["O=C(C=Cn1cnc(-c2cc(C(F)(F)F)cc(C(F)(F)F)c2)n1)NNc1cnccn1 + NC1CCC(NC2CC2c2ccccc2)CC1", ">", 8.50],
  ["O=C(C=Cc1cccc(S(=O)(=O)Nc2ccccc2)c1)NO + NC1CC1c1ccc(-c2cccc(O)c2)cc1", "=", 7.71],
  ["CC(C)CC(NC(=O)CNC(=O)c1cc(Cl)ccc1Cl)B1OC(=O)CC(CC(=O)O)(C(=O)O)O1 (stereo not drawn) + NC1CC1c1ccc(-c2cccc(O)c2)cc1", "=", 8.47],
  ["CC[C@@]1(O)C(=O)OCc2c1cc1n(c2=O)Cc2cc3c(CN(C)C)c(O)ccc3nc2-1 + NC1CCC(NC2CC2c2ccccc2)CC1", "=", 9.40],
  ["CC(C)c1c(-c2ccccc2)nc2c(C#N)c[nH]n2c1=O + NC1CC1c1ccc(-c2cccc(O)c2)cc1", "=", 5.17],
  ["CCc1c2c(nc3ccc(O)cc13)-c1cc3c(c(=O)n1C2)COC(=O)[C@]3(O)CC + NC1CC1c1ccc(-c2cccc(O)c2)cc1", ">", 9.02],
  ["CC(C)CC(NC(=O)C(Cc1ccccc1)NC(=O)c1cnccn1)B(O)O (stereo not drawn) + NC1CCC(NC2CC2c2ccccc2)CC1", "=", 8.96],
  ["COc1cc(C2c3cc4c(cc3C(OC3OC5COC(C)OC5C(O)C3O)C3COC(=O)C23)OCO4)cc(OC)c1O (stereo not drawn) + NC1CC1c1ccc(-c2cccc(O)c2)cc1", "=", 7.72],
  ["Nc1ccn(C2OC(CO)C(O)C2(F)F)c(=O)n1 (stereo not drawn) + NC1CCC(NC2CC2c2ccccc2)CC1", ">", 9.02],
  ["Cn1ncnc1C1c2n[nH]c(=O)c3cc(F)cc(c23)NC1c1ccc(F)cc1 (stereo not drawn) + NC1CCC(NC2CC2c2ccccc2)CC1", "=", 7.85],
  ["CC1(C)CCC(CN2CCN(c3ccc(C(=O)NS(=O)(=O)c4ccc(NCC5CCOCC5)c([N+](=O)[O-])c4)c(Oc4cnc5[nH]ccc5c4)c3)CC2)=C(c2ccc(Cl)cc2)C1 + NC1CC1c1ccc(-c2cccc(O)c2)cc1", "=", 6.00],
  ["CC1COCCN1c1cc(C2(S(C)(=N)=O)CC2)nc(-c2ccnc3[nH]ccc23)n1 (stereo not drawn) + NC1CC1c1ccc(-c2cccc(O)c2)cc1", "=", 6.67],
  ["CC(C)CC(NC(=O)CNC(=O)c1cc(Cl)ccc1Cl)B1OC(=O)CC(CC(=O)O)(C(=O)O)O1 (stereo not drawn) + NC1CCC(NC2CC2c2ccccc2)CC1", "=", 8.29],
  ["CC(C)c1c(-c2ccccc2)nc2c(C#N)c[nH]n2c1=O + NC1CCC(NC2CC2c2ccccc2)CC1", "<", 5.00],
  ["CC1COCCN1c1cc(-c2ccnn2C)c2ccnc(-c3ccn[nH]3)c2n1 (stereo not drawn) + NC1CCC(NC2CC2c2ccccc2)CC1", ">", 8.50]
]}
